Biological target: Cytochrome P450 4A4 (Oryctolagus cuniculus, UniProt P10611)
Sequence (P10611 whole entry): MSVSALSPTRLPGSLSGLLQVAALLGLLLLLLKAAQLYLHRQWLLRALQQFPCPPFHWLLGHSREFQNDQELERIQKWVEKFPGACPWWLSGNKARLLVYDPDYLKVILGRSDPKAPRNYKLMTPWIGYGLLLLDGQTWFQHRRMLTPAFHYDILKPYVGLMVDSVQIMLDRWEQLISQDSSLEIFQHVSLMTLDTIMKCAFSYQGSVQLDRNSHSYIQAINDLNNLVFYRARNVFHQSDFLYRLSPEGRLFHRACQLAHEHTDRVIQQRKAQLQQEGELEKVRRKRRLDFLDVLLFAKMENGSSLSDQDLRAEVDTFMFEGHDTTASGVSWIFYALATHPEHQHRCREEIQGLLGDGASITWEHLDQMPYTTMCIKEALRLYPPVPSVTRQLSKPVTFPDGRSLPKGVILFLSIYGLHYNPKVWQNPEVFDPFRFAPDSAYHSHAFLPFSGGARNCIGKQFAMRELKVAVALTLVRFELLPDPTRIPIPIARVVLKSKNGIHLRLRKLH
Parameter: Ki (µM)

> print(dat)
                               molecule  parameter  units  assay.value
1       C#CCCC[C@@H](O)CCCCCCCCCCC(=O)O         Ki     µM          1.8
2        C#CCCC[C@H](O)CCCCCCCCCCC(=O)O         Ki     µM          3.6
3  C#CCCCC(O)CCCCCCCCCCC(=O)O (racemic)         Ki     µM          4.8
